biological target: Adenosine receptor A2a (Homo sapiens); assay: Displacement of [3H]MSX-2 from human recombinant adenosine A2A receptor expressed in CHO cells by liquid scintillation counting analysis
Sequence (P29274 whole entry): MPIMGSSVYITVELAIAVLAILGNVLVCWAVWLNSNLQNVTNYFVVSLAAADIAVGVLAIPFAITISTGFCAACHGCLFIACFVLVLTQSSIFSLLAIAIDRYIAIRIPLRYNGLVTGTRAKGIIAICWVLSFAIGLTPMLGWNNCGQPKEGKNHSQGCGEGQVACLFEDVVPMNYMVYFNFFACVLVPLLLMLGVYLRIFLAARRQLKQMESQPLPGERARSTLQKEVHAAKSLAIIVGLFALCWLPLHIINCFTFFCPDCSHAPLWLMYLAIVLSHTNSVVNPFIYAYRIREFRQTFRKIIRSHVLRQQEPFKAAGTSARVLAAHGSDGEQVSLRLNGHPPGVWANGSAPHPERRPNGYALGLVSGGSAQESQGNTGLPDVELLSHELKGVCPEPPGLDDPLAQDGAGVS
readout-name: Ki

Nc1nc(-c2ccc(OCCCN3CCCCC3)cc2)c2c(n1)-c1ccc(OCCCN3CCCCC3)cc1C2=O: 203 nM
Nc1nc(-c2ccccc2)c2c(n1)-c1ccc(OCCCN3CCCCC3)cc1C2=O: 142 nM
Nc1nc(-c2ccccc2)c2c(n1)-c1ccc(OCCCN3CCCC3)cc1C2: > 1000 nM
Nc1nc(-c2ccccc2)c2c(n1)-c1cc(OCCCN3CCCC3)ccc1C2: 7.25 nM
Nc1nc(-c2ccccc2)c2c(n1)-c1ccc(OCCCN3CCCC3)cc1C2=O: 104 nM
